Sourced from ChEMBL document CHEMBL5543149

protocol.details: Selectivity index, ratio of CC50 for cytotoxicity against human MT4 cells assessed as reduction in cell viability by MTT assay to EC50 for antiviral activity against wild type HIV-1 IIIB infected in human MT4 cells assessed as protection against virus-induced cytopathic effect
Type: toxicity, cell-based
applied.conditions: read-out: Ratio CC50/EC50
Classification by selectivity ratio follows these ranges: bucket 1: < 200; bucket 2: ≥ 200 and < 5000; bucket 3: ≥ 5000

record.smiles: Cn1c(Cn2ccc(C(F)(F)F)c(Oc3cc(Cl)cc(-c4ccncc4)c3)c2=O)n[nH]c1=O
cat: bucket 2
//
record.smiles: Cn1c(Cn2ccc(C(F)(F)F)c(Oc3cc(Cl)cc(-c4cnc5ccccc5c4)c3)c2=O)n[nH]c1=O
cat: bucket 1
//
record.smiles: COC(=O)c1ccc(-c2cc(Cl)cc(Oc3c(C(F)(F)F)ccn(Cc4n[nH]c(=O)n4C)c3=O)c2)cc1
cat: bucket 2
//
record.smiles: Cn1c(Cn2ccc(C(F)(F)F)c(Oc3cc(Cl)cc(-c4ccsc4)c3)c2=O)n[nH]c1=O
cat: bucket 2
//
record.smiles: Cn1c(Cn2ccc(C(F)(F)F)c(Oc3cc(Cl)cc(-c4ccc(C(N)=O)cc4)c3)c2=O)n[nH]c1=O
cat: bucket 2
//
record.smiles: Cn1c(Cn2ccc(C(F)(F)F)c(Oc3cc(Cl)cc(-c4ccc(Br)cc4)c3)c2=O)n[nH]c1=O
cat: bucket 3
//
record.smiles: Cn1c(Cn2ccc(C(F)(F)F)c(Oc3cc(Cl)cc(-c4ccc(N)cc4)c3)c2=O)n[nH]c1=O
cat: bucket 2
//
record.smiles: Cn1c(Cn2ccc(C(F)(F)F)c(Oc3cc(Cl)cc(-c4cncnc4)c3)c2=O)n[nH]c1=O
cat: bucket 3
//
record.smiles: Cn1c(Cn2ccc(C(F)(F)F)c(Oc3cc(Cl)cc(-c4ccc(O)cc4)c3)c2=O)n[nH]c1=O
cat: bucket 1
//
record.smiles: Cc1ccc(-c2cc(Cl)cc(Oc3c(C(F)(F)F)ccn(Cc4n[nH]c(=O)n4C)c3=O)c2)cc1
cat: bucket 3
//
record.smiles: Cn1c(Cn2ccc(C(F)(F)F)c(Oc3cc(Cl)cc(-c4ccc([N+](=O)[O-])cc4)c3)c2=O)n[nH]c1=O
cat: bucket 2
//
record.smiles: Cn1c(Cn2ccc(C(F)(F)F)c(Oc3cc(Cl)cc(Br)c3)c2=O)n[nH]c1=O
cat: bucket 3
//
record.smiles: Cn1c(Cn2ccc(C(F)(F)F)c(Oc3cc(Cl)cc(-c4ccc(C#N)cc4)c3)c2=O)n[nH]c1=O
cat: bucket 1
//
record.smiles: Cn1c(Cn2ccc(C(F)(F)F)c(Oc3cc(Cl)cc(-c4cnc(N)nc4)c3)c2=O)n[nH]c1=O
cat: bucket 1
